These data points were gathered from patent US20240124605A1.

kon listing for selected binders.
Biological target: T1, CD123-Fc (Sino Biological) (human, UniProt P26951 19-305)
T1 construct: Bought reagent; not shown: Fc of the bought fusion (detected with anti-human Fc, captured on AHC sensor)
T1 sequence: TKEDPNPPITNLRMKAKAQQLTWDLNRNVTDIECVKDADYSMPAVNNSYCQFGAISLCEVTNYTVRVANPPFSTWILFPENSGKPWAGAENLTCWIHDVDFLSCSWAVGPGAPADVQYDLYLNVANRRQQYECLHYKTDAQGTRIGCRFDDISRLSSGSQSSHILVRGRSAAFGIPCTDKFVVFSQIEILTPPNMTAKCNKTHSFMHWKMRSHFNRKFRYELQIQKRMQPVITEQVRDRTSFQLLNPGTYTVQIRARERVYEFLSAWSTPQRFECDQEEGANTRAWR
Test: BLI (Octet), CD123-Fc captured on AHC sensor, Adapter 500-0.69 nM in solution, global 1:1 fit, 25 C
# unit: M⁻¹ s⁻¹ | format: bare number

| BINDER | kon (M⁻¹ s⁻¹) |
| --- | --- |
| Adapter protein comprising the 4R8U D domain and a P26(Q26-V229) AFP polypeptide (designed binder, also called 6T1D(K48E, N50S); not shown: His tag (purified on Ni-Sepharose)) MGSWDEFGRRLYAIEWQLYALGGTEAELAAFEKEIAAFESELQAYKGEGSPEVEKLREIAAVIRENLQAYRHNQESQALAKRSCGLFQKLGEYYLQNAFLVAYTKKAPQLTSSELMAITRKMAATAATCCQLSEDKLLACGEGAADIIIGHLCIRHEMTPVNPGVGQCCTSSYANRRPCFSSLVVDETYVPPAFSDDKFIFHKDLCQAQGVALQTMKQEFLINLVKQKPQITEEQLEAVIADFSGLLEKCCQGQEQEVCFAEEGQKLISKTRAALGV | 254000 |

QUERY: Recorded kon for Adapter protein comprising the 8O3S D domain and a P26(Q26-V229) AFP polypeptide (designed binder, also called 6T1D(W16T); not shown: His tag (purified on Ni-Sepharose)) MGSWDEFGRRLYAIETQLYALGGTEAELAAFEKEIAAFESELQAYKGKGNPEVEKLREIAAVIRENLQAYRHNQESQALAKRSCGLFQKLGEYYLQNAFLVAYTKKAPQLTSSELMAITRKMAATAATCCQLSEDKLLACGEGAADIIIGHLCIRHEMTPVNPGVGQCCTSSYANRRPCFSSLVVDETYVPPAFSDDKFIFHKDLCQAQGVALQTMKQEFLINLVKQKPQITEEQLEAVIADFSGLLEKCCQGQEQEVCFAEEGQKLISKTRAALGV , please?
RESULT: 235000
